These entries and their values trace back to patent US12637428B2.

ASSAYED TARGET: UniProtKB P57059
Sequence (P57059 whole entry): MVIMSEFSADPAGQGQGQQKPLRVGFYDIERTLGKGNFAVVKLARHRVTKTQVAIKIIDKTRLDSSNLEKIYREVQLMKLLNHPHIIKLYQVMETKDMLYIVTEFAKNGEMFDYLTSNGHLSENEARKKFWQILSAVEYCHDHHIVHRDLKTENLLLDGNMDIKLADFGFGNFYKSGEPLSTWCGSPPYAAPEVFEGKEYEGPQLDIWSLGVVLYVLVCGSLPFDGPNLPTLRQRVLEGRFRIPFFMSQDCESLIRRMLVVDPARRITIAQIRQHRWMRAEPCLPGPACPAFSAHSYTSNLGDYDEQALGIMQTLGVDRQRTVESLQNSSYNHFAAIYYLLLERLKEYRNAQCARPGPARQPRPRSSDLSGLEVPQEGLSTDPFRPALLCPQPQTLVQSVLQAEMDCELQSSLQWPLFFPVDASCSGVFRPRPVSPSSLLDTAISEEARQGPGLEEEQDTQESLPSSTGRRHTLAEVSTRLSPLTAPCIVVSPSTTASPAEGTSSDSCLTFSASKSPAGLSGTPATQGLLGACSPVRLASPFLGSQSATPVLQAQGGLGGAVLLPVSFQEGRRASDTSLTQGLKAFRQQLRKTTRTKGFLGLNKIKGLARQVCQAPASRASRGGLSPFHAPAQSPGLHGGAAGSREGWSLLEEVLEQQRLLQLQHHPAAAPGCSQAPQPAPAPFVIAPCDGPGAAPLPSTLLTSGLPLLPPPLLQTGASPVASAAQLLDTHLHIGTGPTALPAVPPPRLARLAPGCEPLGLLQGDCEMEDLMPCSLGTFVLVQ
QUANTITY KIND: Ki (nM)

Cc1cccc(F)c1-c1cc(NC2CCN(C)CC2)c2cc(N)ncc2c1 [Example 54]
0.418
CC(=O)Nc1cc2c(NC3CCN(C)CC3)cc(-c3c(C)cccc3F)cc2cn1 [Example 115]
0.183
Cc1cccc(Cl)c1-c1cc(NC2CCNCC2)c2nc(N)ncc2c1 [Example 137]
0.296
Cc1cccc(F)c1-c1cc(NC[C@@H]2CCCCN2)c2cc(N)ncc2c1 [Example 14]
0.601

[A] CCN1CCC(Nc2cc(-c3c(C)cccc3F)c(F)c3cnc(N)cc23)CC1 [Example 118]
[B] Cc1cccc(F)c1-c1cc(N2CCC[C@H](O)C2)c2cc(N)ncc2c1 [Example 107]
stdin: Which entry shows the lesser value of Ki here, A or B ? Answer with the label corresponding to your selection.
stdout: A

[I] Cc1cccc(F)c1-c1cc(NC2CCN(C)CC2)c2cc(N)ncc2n1 [Example 121]
[II] CNC1CN(c2cc(-c3c(C)cccc3F)cc3cnc(N)cc23)C1 [Example 29]
[III] Cc1cccc(F)c1-c1cc(NC[C@H]2CCCN(C)C2)c2cc(N)ncc2c1 [Example 77]
[IV] CN[C@@H]1CCN(c2cc(-c3c(C)cccc3F)cc3cnc(N)cc23)C1 [Example 24]
stdin: Falling order of Ki, please. List labels; respect the requested ordering.
stdout: I, IV, III, II
(I: 178 nM, IV: 2.34 nM, III: 1.13 nM, II: 0.381 nM)

[A] Cc1cccc(F)c1-c1cc(NC[C@H]2CCCCN2C)c2cc(N)ncc2c1 [Example 56]
[B] Cc1cccc(F)c1-c1cc(N[C@H]2CC[C@H](O)CC2)c2cc(N)ncc2c1 [Example 109]
stdin: Please choose the item with the lower Ki value from this pair: A and B Give the label of your selection.
stdout: A
(A: 1.06 nM, B: 3.76 nM)

[P] Cc1cccc(F)c1-c1cc(NC[C@@H]2CCNC2)c2cc(N)ncc2c1 [Example 6]
[Q] Cc1cccc(Cl)c1-c1cc(NC2CCNCC2)c2ccncc2c1 [Example 50]
[R] Cc1cccc(Cl)c1-c1cc(NC2CCNCC2)c2ncncc2c1 [Example 138]
stdin: Arrange by Ki, high to low. Your answer should be the labels, listed in the requested order.
stdout: R, Q, P
